Test: Inhibition of Wnt3A/beta-catenin signaling-mediated Tcf4 transcriptional activity in human HEK293T cells at dual luciferase reporter gene assay EC50 after 24 hrs by FOPglow reporter gene assay
Design: scale not given: the % may be the effect or the level left
Assay Endpoint: activity (%)
Enter your answer as a number in %; do not include the unit.

> print(dat)
                                  structure  result.unit  value
1  COc1cc(/C=C2\CCC/C(=C\c3ccc(O)c(OC)c3)C2=O)ccc1O            %   87.6
2      O=C1/C(=C/c2ccccc2)CCC/C1=C\c1ccccc1            %   90.7
3  COc1ccc(/C=C2\CC/C(=C\c3ccc(OC)c(OC)c3)C2=O)cc1OC            %   85.2

## Input Looking for the measured activity of O=C1/C(=C/c2ccc(O)cc2)CC/C1=C\c1ccc(O)cc1 , can you help?
## Output 101

## Input Which activity is listed for COc1ccc(/C=C/C(=O)/C=C(O)/C=C/c2ccc(OC)c(OC)c2)cc1OC ?
## Output 118

## Input Return reported activity; argument: O=C(/C=C/c1ccc(O)cc1)/C=C/c1ccc(O)cc1
## Output 100

## Input Return reported activity; argument: COc1cc(/C=C/C(=O)CC(=O)/C=C/c2ccc(O)c(OC)c2)ccc1O
## Output 89.3

====

Catalogue of pEC50 values
Test: Inhibition of Wnt3A/beta-catenin signaling in HEK293 cells after 24 hrs by firefly/renilla dual luciferase reporter gene assay
Type: cell-based
Condition Description: Homo sapiens, HEK293, 24 h
As a rule, pEC50 stands for the negative log10 of the concentration, concentration in M.

## Input Return reported pEC50; argument: O=C(/C=C/c1ccc(O)cc1)/C=C/c1ccc(O)cc1
## Output 5.49

## Input Param item = COc1cc(/C=C2\CCC/C(=C\c3ccc(O)c(OC)c3)C2=O)ccc1O ; retrieve measured pEC50.
## Output 5.59

## Input # pEC50 lookup, item COc1cc(/C=C/C(=O)CC(=O)/C=C/c2ccc(O)c(OC)c2)ccc1O
## Output 4.68

## Input Consider the compound shown here: O=C1/C(=C/c2ccccc2)CCC/C1=C\c1ccccc1 What is its recorded pEC50?
## Output 5.70

====

Overview of recorded EC50 for various compounds
Test: Inhibition of Wnt3A/beta-catenin signaling in HEK293 cells after 24 hrs by firefly/renilla dual luciferase reporter gene assay
Format: cell-based
Condition Description: Homo sapiens, HEK293, 24 h
Quick note: give the figure in nM, leave out the unit.

Completed entries (count: 2):
> print(dat)
                                 compound  assay.endpoint  result.unit  value
1   O=C(/C=C/c1ccccc1)c1ccccc1 [CHALCONE]            EC50           nM  11000
2  COc1ccc(/C=C/C(=O)c2ccc(OC)c(O)c2)cc1O            EC50           nM   3900

## Input EC50 lookup needed for O=C1/C(=C/c2ccccc2F)CCC/C1=C\c1ccccc1F , thanks.
## Output 900

## Input Give its EC50 value. Item: COc1ccc(/C=C2\CC/C(=C\c3ccc(OC)c(O)c3)C2=O)cc1O
## Output 500
